target_desc: 5HT2C receptors (Homo sapiens)
Sequence (P28335 33-458): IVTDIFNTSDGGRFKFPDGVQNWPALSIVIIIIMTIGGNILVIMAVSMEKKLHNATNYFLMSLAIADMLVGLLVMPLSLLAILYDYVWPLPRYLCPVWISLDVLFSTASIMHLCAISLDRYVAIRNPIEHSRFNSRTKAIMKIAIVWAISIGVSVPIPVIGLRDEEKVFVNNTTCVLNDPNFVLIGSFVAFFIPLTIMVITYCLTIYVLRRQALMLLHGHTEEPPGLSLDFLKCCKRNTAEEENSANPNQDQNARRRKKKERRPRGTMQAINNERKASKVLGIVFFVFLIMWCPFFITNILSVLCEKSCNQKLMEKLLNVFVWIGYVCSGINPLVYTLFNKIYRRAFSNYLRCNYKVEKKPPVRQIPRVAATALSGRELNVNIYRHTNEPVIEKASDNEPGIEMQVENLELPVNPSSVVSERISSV
assay_comment: Human 5-HT2C functional high throughput screening assay in CHO-K1 cells (calcium flux)
Format: cell-based
Set-up: expressed in transfected cells; host or cells: CHO-K1 cells
assay_conditions: CHO-K1; 5-HT2C; maximum functional response as percentage relative to the effect of serotonin; read-out: Emax
// label = label 1 if Emax is not less than 90%, otherwise label 0

// inclusive: Emax at least 90%? input: O=C1NC[C@@H]2CNC[C@H]2c2ccc(C3CCOCC3)cc21 (relative stereo)
label 1

// inclusive: Emax at least 90%? input: `C[C@H](O)c1cccc(-c2ccc3c(c2)C(=O)NC[C@H]2CN(C)C[C@H]32)c1`
label 1

// inclusive: Emax at least 90%? input: O=S(=O)(c1cccc(OC(F)(F)F)c1)N1Cc2cccnc2[C@@H]2CNC[C@H]2C1 (relative stereo)
label 0

// inclusive: Emax at least 90%? input: COc1c(C)cc(-c2ccc3c(c2)C(=O)NC[C@@H]2CN(C)C[C@@H]32)cc1C (relative stereo)
label 0

// inclusive: Emax at least 90%? input: COc1ccc(-c2ccc3c(c2)C(=O)NC[C@@H]2CN(C)C[C@@H]32)cc1 (relative stereo) [Example 131]
label 1

// inclusive: Emax at least 90%? input: COc1ccc2c(c1)[C@H]1CN(Cc3ccccc3)C[C@@H]1CCC2=O (relative stereo)
label 1

// inclusive: Emax at least 90%? input: O=C1NC[C@@H]2CNC[C@H]2c2ccc(-c3c(F)cccc3F)cc21 (relative stereo)
label 1

// inclusive: Emax at least 90%? input: COc1ccc(CCOc2ccc3c(c2)C(=O)NC[C@@H]2CNC[C@@H]32)cc1 (relative stereo)
label 1

// inclusive: Emax at least 90%? input: CN1C[C@@H]2CNC(=O)c3cc(-c4ccc5c(c4)C(O)CC5)ccc3[C@H]2C1 (stereo partly drawn)
label 1

// inclusive: Emax at least 90%? input: O=C1NC[C@@H]2CNC[C@H]2c2ccc(OCCc3cccc(F)c3)cc21 (relative stereo)
label 1

// inclusive: Emax at least 90%? input: COc1cc(OC)c2c(c1)C(=O)NC[C@@H]1CN(Cc3ccccc3)C[C@@H]21 (relative stereo)
label 1

// inclusive: Emax at least 90%? input: `COc1ccccc1-c1ccc2c(c1)C(=O)NC[C@H]1CN(C)C[C@H]21`
label 1

// inclusive: Emax at least 90%? input: CCC(O)c1cccc(-c2ccc3c(c2)C(=O)NC[C@H]2CN(C)C[C@H]32)c1 (stereo partly drawn)
label 1

----------
target_desc: 5HT2B receptors (Homo sapiens)
Construct: expressed in transfected cells; host or cells: CHO-K1 cells
Sequence (P41595 whole entry): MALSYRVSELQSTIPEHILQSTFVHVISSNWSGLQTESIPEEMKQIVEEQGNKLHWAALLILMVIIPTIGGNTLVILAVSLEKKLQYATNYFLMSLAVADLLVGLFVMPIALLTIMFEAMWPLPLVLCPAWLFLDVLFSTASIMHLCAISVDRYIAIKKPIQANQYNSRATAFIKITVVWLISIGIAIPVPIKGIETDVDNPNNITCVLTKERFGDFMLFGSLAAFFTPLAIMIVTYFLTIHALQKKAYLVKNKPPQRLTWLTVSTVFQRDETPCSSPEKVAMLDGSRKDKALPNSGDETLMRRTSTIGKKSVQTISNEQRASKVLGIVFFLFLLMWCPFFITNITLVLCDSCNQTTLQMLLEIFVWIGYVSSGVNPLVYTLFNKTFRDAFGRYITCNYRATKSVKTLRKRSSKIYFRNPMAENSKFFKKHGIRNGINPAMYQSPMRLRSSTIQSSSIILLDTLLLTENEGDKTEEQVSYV
assay_comment: Human 5-HT2B functional high throughput screening assay in CHO-K1 cells (calcium flux)
Assay type: cell-based
assay_conditions: CHO-K1
// label = Satisfied if Emax is not less than 40%, otherwise Not satisfied

// inclusive: Emax at least 40%? input: CN1C[C@H]2CNC(=O)c3c(OC(F)(F)F)cccc3[C@@H]2C1 (relative stereo)
Not satisfied

// inclusive: Emax at least 40%? input: `CN1C[C@@H]2CNC(=O)c3c(OC(F)(F)F)cccc3[C@H]2C1`
Not satisfied

// inclusive: Emax at least 40%? input: FC(F)(F)Oc1ccc2c(c1)[C@H]1CNC[C@@H]1CCO2 (relative stereo)
Not satisfied

// inclusive: Emax at least 40%? input: CN1C[C@H]2CNC(=O)c3cccc(F)c3[C@@H]2C1 (relative stereo)
Not satisfied

// inclusive: Emax at least 40%? input: CN1C[C@@H]2CNC[C@H]2c2ccc(F)cc2C1=O (relative stereo)
Satisfied

// inclusive: Emax at least 40%? input: `CN1C[C@@H]2CCOc3ccccc3[C@H]2C1`
Satisfied

// inclusive: Emax at least 40%? input: c1ccc(CN2CC[C@@H]3CNC[C@H]3c3ccccc32)cc1 (relative stereo)
Not satisfied

// inclusive: Emax at least 40%? input: Brc1cccc2c1OCC[C@H]1CNC[C@H]21 (relative stereo)
Satisfied

// inclusive: Emax at least 40%? input: COC(=O)c1cccc2c1NCC[C@@H]1CNC[C@@H]21 (relative stereo)
Satisfied

// inclusive: Emax at least 40%? input: Fc1cccc2c1OCC[C@H]1CNC[C@H]21 (relative stereo)
Satisfied

// inclusive: Emax at least 40%? input: c1ccc2c(c1)OCC[C@H]1CNC[C@H]21 [Example 270]
Satisfied

// inclusive: Emax at least 40%? input: Fc1ccc(COc2cccc3c2OCC[C@H]2CNC[C@H]32)cc1 (relative stereo)
Satisfied

// inclusive: Emax at least 40%? input: CN1CC[C@@H]2CNC[C@H]2c2ccccc21 (relative stereo)
Satisfied

// inclusive: Emax at least 40%? input: Fc1ccc2c(c1)[C@@H]1CNC[C@@H]1CCO2 (relative stereo)
Satisfied

// inclusive: Emax at least 40%? input: CC(=O)N1CC[C@@H]2CNC[C@H]2c2ccccc21 (relative stereo)
Satisfied

// inclusive: Emax at least 40%? input: CN1C[C@H]2CNC(=O)c3c(F)cccc3[C@@H]2C1 (relative stereo)
Not satisfied

// inclusive: Emax at least 40%? input: `CN1C[C@@H]2CN(C)C(=O)c3cc(F)ccc3[C@H]2C1`
Not satisfied

// inclusive: Emax at least 40%? input: O=S(=O)(c1ccccc1)N1Cc2cccnc2[C@@H]2CNC[C@H]2C1 (relative stereo)
Not satisfied

// inclusive: Emax at least 40%? input: COc1cc(OC)c2c(c1)C(=O)NC[C@@H]1CNC[C@@H]21 (relative stereo)
Satisfied

// inclusive: Emax at least 40%? input: O=S(=O)(c1ccccc1F)N1Cc2cccnc2[C@@H]2CNC[C@H]2C1 (relative stereo)
Satisfied

// inclusive: Emax at least 40%? input: Fc1ccc(F)c2c1OCC[C@H]1CNC[C@@H]21 (relative stereo)
Satisfied

// inclusive: Emax at least 40%? input: O=C1NC[C@@H]2CNC[C@H]2c2c1sc1ccccc21 (relative stereo)
Satisfied

----------
target_desc: UniProt P28335
Sequence (P28335 33-458): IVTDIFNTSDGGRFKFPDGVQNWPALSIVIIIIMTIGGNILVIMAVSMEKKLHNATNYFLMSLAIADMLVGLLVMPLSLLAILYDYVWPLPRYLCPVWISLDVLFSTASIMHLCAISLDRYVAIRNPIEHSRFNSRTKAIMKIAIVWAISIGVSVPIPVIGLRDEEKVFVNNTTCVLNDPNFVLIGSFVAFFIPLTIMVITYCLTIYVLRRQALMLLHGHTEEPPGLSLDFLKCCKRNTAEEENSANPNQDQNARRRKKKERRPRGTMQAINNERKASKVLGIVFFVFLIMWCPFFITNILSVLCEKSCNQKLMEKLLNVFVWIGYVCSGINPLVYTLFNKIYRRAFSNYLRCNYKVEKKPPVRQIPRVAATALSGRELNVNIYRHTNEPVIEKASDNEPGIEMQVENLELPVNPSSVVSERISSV
assay_comment: Human 5-HT2C functional assay in 1321N1 cells (intracellular calcium, FLIPR)
Assay type: cell-based
Parameters: expressed in transfected cells; host or cells: 1321N1 cells
assay_conditions: 5-HT2c agonist activity, maximum calcium response
Exercise: for every item that follows, state its recorded pEC50.
The read-out pEC50 is expressed as -log10 of concentration in moles per litre.

Endpoint output: pEC50 of O=C1NC[C@@H]2CN(Cc3cccc(Cl)c3)C[C@H]2c2ccccc21 (relative stereo) [Example 32] . Value?
7.71

Endpoint output: pEC50 of O=C1NC[C@@H]2CN(Cc3ccccc3)C[C@H]2c2cc(Cl)c(Cl)cc21 (relative stereo) [Example 56] . Value?
7.82

Endpoint output: pEC50 of Cc1ccc(CN2C[C@H]3CNC(=O)c4ccccc4[C@@H]3C2)cc1C (relative stereo) [Example 25] . Value?
7.40

Endpoint output: pEC50 of O=C1NC[C@@H]2CN(Cc3cc(Cl)ccc3Cl)C[C@H]2c2ccccc21 (relative stereo) [Example 31] . Value?
8.39

Endpoint output: pEC50 of COC(=O)c1cccc(CN2C[C@H]3CNC(=O)c4ccccc4[C@@H]3C2)c1 (relative stereo) [Example 68] . Value?
8.40

Endpoint output: pEC50 of N#Cc1cccc(CN2C[C@H]3CNC(=O)c4ccccc4[C@@H]3C2)c1 (relative stereo) [Example 36] . Value?
7.11

Endpoint output: pEC50 of O=C1NC[C@@H]2CNC[C@@H]2c2ccccc21 (relative stereo) [Example 4] . Value?
6.69

Endpoint output: pEC50 of O=C1NC[C@@H]2CNC[C@H]2c2c(Cl)cccc21 (relative stereo) [Example 49] . Value?
7.32
